system: oilseed rape homozygous for HETO139 and HETO134 (139-134); test: Field herbicide tolerance, visible phytotoxicity (ALS I W574L, ALS III P197S-D376E); assay type: in vivo, Brassica napus; conditions: 9 DAA, gai/ha: imazamox 40, bispyribac-sodium 50, propoxycarbazone-sodium 70, mesosulfuron-methyl 60, pyroxsulam 12.5 + cloquintocet-mexyl 37.5, each + rapeseed oil methylated 366.5
property_measured: Percentage phytotoxicity (%)
Only the number, expressed in %, is required.

{"molecule": "COc1cc(OC)n2nc(NS(=O)(=O)c3c(C(F)(F)F)ccnc3OC)nc2n1", "units_symbol": "%", "Percentage phytotoxicity": 10.7}

Query block: Item under review: COC(=O)c1ccc(CNS(C)(=O)=O)cc1S(=O)(=O)NC(=O)Nc1nc(OC)cc(OC)n1 . Reported Percentage phytotoxicity?
Result block: 9.3

Query block: Also need COc1cc(OC)nc(Oc2cccc(Oc3nc(OC)cc(OC)n3)c2C(=O)O)n1 [Bispyribac-sodium, bispyribac-sodium] , thanks.
Result block: 40

Query block: Also need COCc1cnc(C2=NC(C)(C(C)C)C(=O)N2)c(C(=O)O)c1 (centres unmarked) , thanks.
Result block: 13.3

Query block: Also need CCCOc1nn(C(=O)[N-]S(=O)(=O)c2ccccc2C(=O)OC)c(=O)n1C.[Na+] [PROPOXYCARBAZONE-SODIUM, propoxycarbazone-sodium] , thanks.
Result block: 15

* * *

test system: oilseed rape homozygous for HETO132 and HETO134 (132-134); experiment: Field herbicide tolerance, visible phytotoxicity (ALS I W574L, ALS III P197S-W574L); type: in vivo, Brassica napus; details: 16 DAA, gai/ha: imazamox 40, bispyribac-sodium 50, propoxycarbazone-sodium 70, mesosulfuron-methyl 60, pyroxsulam 12.5 + cloquintocet-mexyl 37.5, each + rapeseed oil methylated 366.5
# Percentage phytotoxicity listing for each entry below
Only the number, expressed in %, is required.

Below: 4 compounds and their reported Percentage phytotoxicity.
{"compound": "COC(=O)c1ccc(CNS(C)(=O)=O)cc1S(=O)(=O)NC(=O)Nc1nc(OC)cc(OC)n1", "property_measured": "Percentage phytotoxicity", "reported_measurement": 11.7}
{"compound": "CCCOc1nn(C(=O)[N-]S(=O)(=O)c2ccccc2C(=O)OC)c(=O)n1C.[Na+] [PROPOXYCARBAZONE-SODIUM, propoxycarbazone-sodium]", "property_measured": "Percentage phytotoxicity", "reported_measurement": 36.7}
{"compound": "COCc1cnc(C2=NC(C)(C(C)C)C(=O)N2)c(C(=O)O)c1 (centres unmarked)", "property_measured": "Percentage phytotoxicity", "reported_measurement": 8.7}
{"compound": "COc1cc(OC)n2nc(NS(=O)(=O)c3c(C(F)(F)F)ccnc3OC)nc2n1", "property_measured": "Percentage phytotoxicity", "reported_measurement": 16}

Now consider the entry below.
Query block: Item under review: COc1cc(OC)nc(Oc2cccc(Oc3nc(OC)cc(OC)n3)c2C(=O)O)n1 [Bispyribac-sodium, bispyribac-sodium] . Reported Percentage phytotoxicity?
Result block: 71.7

* * *

target: AHAS D376E-W574L (Arabidopsis thaliana, UniProt P17597, D376E/E575Q/W574L); test: biochemical; settings: AHAS D376E-W574L
Sequence (P17597 56-670 D376E/W574L/E575Q): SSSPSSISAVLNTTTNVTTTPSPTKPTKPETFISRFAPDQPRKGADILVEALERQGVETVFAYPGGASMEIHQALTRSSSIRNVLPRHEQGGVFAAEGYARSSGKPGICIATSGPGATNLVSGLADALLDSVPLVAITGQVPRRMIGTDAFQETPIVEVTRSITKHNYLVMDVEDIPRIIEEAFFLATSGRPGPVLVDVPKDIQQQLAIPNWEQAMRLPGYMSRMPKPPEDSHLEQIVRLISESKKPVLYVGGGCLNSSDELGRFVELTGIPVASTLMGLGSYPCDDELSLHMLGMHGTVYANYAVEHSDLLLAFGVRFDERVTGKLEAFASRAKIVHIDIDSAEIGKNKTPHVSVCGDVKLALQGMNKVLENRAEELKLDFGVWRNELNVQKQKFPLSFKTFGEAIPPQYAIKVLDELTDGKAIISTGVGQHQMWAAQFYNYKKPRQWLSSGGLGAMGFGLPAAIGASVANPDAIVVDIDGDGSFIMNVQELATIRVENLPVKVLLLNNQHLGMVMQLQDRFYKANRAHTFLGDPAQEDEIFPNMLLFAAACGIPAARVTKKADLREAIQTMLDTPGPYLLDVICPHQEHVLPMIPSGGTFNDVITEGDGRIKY
property_measured: Resistance Factor

Below: 5 compounds and their reported Resistance Factor.
{"compound": "COc1ncc(F)c2nc(S(=O)(=O)Nc3c(F)cccc3F)nn12", "system_under_test": "AHAS D376E-W574L (Arabidopsis thaliana, UniProt P17597, D376E/E575Q/W574L)", "Resistance Factor": ">6918"}
{"compound": "CCS(=O)(=O)c1nc2ccccn2c1S(=O)(=O)NC(=O)Nc1nc(OC)cc(OC)n1", "system_under_test": "AHAS D376E-W574L (Arabidopsis thaliana, UniProt P17597, D376E/E575Q/W574L)", "Resistance Factor": ">4641"}
{"compound": "COc1cc(OC)nc(NC(=O)NS(=O)(=O)c2cc(NC=O)ccc2C(=O)N(C)C)n1", "system_under_test": "AHAS D376E-W574L (Arabidopsis thaliana, UniProt P17597, D376E/E575Q/W574L)", "Resistance Factor": ">11748"}
{"compound": "COC(=O)c1ccccc1S(=O)(=O)NC(=O)Nc1nc(C)nc(OC)n1", "system_under_test": "AHAS D376E-W574L (Arabidopsis thaliana, UniProt P17597, D376E/E575Q/W574L)", "Resistance Factor": ">7547"}
{"compound": "COc1cc(OC)n2nc(S(=O)(=O)Nc3c(Cl)ccc(C)c3Cl)nc2n1", "system_under_test": "AHAS D376E-W574L (Arabidopsis thaliana, UniProt P17597, D376E/E575Q/W574L)", "Resistance Factor": ">28840"}

Query block: Item under review: COCc1cnc(C2=NC(C)(C(C)C)C(=O)N2)c(C(=O)O)c1 (centres unmarked) . Reported Resistance Factor?
Result block: >22

Query block: Also need COc1cc(OC)n2nc(NS(=O)(=O)c3c(C(F)(F)F)ccnc3OC)nc2n1 , thanks.
Result block: >41368

Query block: Also need COC(=O)c1csc(C)c1S(=O)(=O)NC(=O)n1nc(OC)n(C)c1=O , thanks.
Result block: >7399

* * *

tested on: oilseed rape homozygous for HETO133 and HETO134 (133-134); assay: Field herbicide tolerance, visible phytotoxicity (ALS I W574L, ALS III W574L); assay type: in vivo, Brassica napus; conditions: 16 DAA, gai/ha: imazamox 40, bispyribac-sodium 50, propoxycarbazone-sodium 70, mesosulfuron-methyl 60, pyroxsulam 12.5 + cloquintocet-mexyl 37.5, each + rapeseed oil methylated 366.5
# Percentage phytotoxicity listing for each entry below
Only the number, expressed in %, is required.

Below: 3 molecules and their reported Percentage phytotoxicity.
{"molecule": "COc1cc(OC)nc(Oc2cccc(Oc3nc(OC)cc(OC)n3)c2C(=O)O)n1 [Bispyribac-sodium, bispyribac-sodium]", "units_symbol": "%", "Percentage phytotoxicity": 88.3}
{"molecule": "COC(=O)c1ccc(CNS(C)(=O)=O)cc1S(=O)(=O)NC(=O)Nc1nc(OC)cc(OC)n1", "units_symbol": "%", "Percentage phytotoxicity": 13.3}
{"molecule": "CCCOc1nn(C(=O)[N-]S(=O)(=O)c2ccccc2C(=O)OC)c(=O)n1C.[Na+] [PROPOXYCARBAZONE-SODIUM, propoxycarbazone-sodium]", "units_symbol": "%", "Percentage phytotoxicity": 82.7}

Query block: Item under review: COc1cc(OC)n2nc(NS(=O)(=O)c3c(C(F)(F)F)ccnc3OC)nc2n1 . Reported Percentage phytotoxicity?
Result block: 17

Query block: Also need COCc1cnc(C2=NC(C)(C(C)C)C(=O)N2)c(C(=O)O)c1 (centres unmarked) , thanks.
Result block: 10

* * *

molecular target: AHAS W574L (Arabidopsis thaliana, UniProt P17597, E575Q/W574L); assay type: biochemical
Sequence (P17597 56-670 W574L/E575Q): as the sequence (P17597 56-670 D376E/W574L/E575Q) above, with E321D counted along it
property_measured: Resistance Factor
I'd appreciate a reply containing only the number, no unit.

{"molecule": "COc1cc(OC)n2nc(S(=O)(=O)Nc3c(Cl)ccc(C)c3Cl)nc2n1", "property_measured": "Resistance Factor", "reported_measurement": 5754}

Now consider the entry below.
Query block: Item under review: COC(=O)c1csc(C)c1S(=O)(=O)NC(=O)n1nc(OC)n(C)c1=O . Reported Resistance Factor?
Result block: 1173

* * *

target: AHAS D376E (Arabidopsis thaliana, UniProt P17597, D376E/E575Q); test: biochemical
Sequence (P17597 56-670 D376E/E575Q): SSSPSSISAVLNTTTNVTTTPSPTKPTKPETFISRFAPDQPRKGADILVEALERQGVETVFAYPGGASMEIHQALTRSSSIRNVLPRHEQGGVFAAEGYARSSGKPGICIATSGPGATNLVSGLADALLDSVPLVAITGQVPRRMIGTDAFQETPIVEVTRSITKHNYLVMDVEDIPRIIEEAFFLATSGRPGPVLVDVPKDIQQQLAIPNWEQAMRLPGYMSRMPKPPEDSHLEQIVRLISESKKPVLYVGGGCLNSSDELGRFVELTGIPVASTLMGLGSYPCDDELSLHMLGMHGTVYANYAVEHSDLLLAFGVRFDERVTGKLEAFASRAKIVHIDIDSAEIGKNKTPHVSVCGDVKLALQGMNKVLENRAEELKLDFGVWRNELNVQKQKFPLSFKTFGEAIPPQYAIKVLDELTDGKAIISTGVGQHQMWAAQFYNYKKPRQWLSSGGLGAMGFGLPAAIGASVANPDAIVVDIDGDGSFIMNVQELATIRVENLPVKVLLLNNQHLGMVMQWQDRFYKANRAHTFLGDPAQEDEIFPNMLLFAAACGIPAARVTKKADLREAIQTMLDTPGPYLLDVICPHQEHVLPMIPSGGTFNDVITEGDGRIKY
# log10(IC50) listing for each entry below
Recall that a logarithmic scale is used here: each number is log10 of IC50 in µM.

{"molecule": "COc1cc(OC)nc(Oc2cccc(Oc3nc(OC)cc(OC)n3)c2C(=O)O)n1 [Bispyribac-sodium, bispyribac-sodium]", "log10(IC50)": 0.00}
{"molecule": "COc1cc(OC)n2nc(S(=O)(=O)Nc3c(Cl)ccc(C)c3Cl)nc2n1", "log10(IC50)": 0.30}
{"molecule": "COc1cc(OC)nc(NC(=O)NS(=O)(=O)c2cc(NC=O)ccc2C(=O)N(C)C)n1", "log10(IC50)": 1.50}
{"molecule": "COc1cc(OC)nc(NC(=O)NS(=O)(=O)c2ncccc2C(F)(F)F)n1", "log10(IC50)": -0.20}
{"molecule": "COCc1cnc(C2=NC(C)(C(C)C)C(=O)N2)c(C(=O)O)c1 (stereo not shown)", "log10(IC50)": 1.70}
{"molecule": "CCS(=O)(=O)c1nc2ccccn2c1S(=O)(=O)NC(=O)Nc1nc(OC)cc(OC)n1", "log10(IC50)": 1.40}
{"molecule": "CCS(=O)(=O)c1cccnc1S(=O)(=O)NC(=O)Nc1nc(OC)cc(OC)n1", "log10(IC50)": 0.10}

Now consider the entry below.
Query block: Hi! What's the reported log10(IC50) for COC(=O)c1sccc1S(=O)(=O)NC(=O)Nc1nc(C)nc(OC)n1 on AHAS D376E (Arabidopsis thaliana, UniProt P17597, D376E/E575Q)?
Result block: 1.40
